The reported measurements were obtained from paper PMC6784197.

target.or.test.system: T1, hCD138 (human Syndecan-1), extracellular domain (human) (UniProt P18827)
T1 sequence: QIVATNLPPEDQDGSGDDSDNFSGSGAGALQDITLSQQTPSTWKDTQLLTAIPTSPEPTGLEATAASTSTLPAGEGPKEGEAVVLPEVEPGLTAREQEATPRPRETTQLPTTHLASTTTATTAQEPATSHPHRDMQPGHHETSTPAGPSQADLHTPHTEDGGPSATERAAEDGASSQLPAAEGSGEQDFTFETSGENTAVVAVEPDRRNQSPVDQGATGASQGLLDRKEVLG
procedure.text: SPR; bivalent (avidity) set-up: CD138 amine-coupled to CM5 chip (240 RU), IgG as analyte 33-300 nM; Biacore T200, HBS-P+ pH 7.4, 25 °C; 1:1 Langmuir model
Measured kon of individual entries
Response body: numeric value in M⁻¹ s⁻¹, unit text excluded.

Form field: reported kon of <CD138> Hb-Lw (antibody, V domains shown) VH: QVQLQQSGSELMMPGASVKISCKATGYTFTGYWIEWVKQRPGHGLEWIGEILPGTGRTIYNEKFKGKATFTADISSNTVQMQLSSLTSEDSAVYYCARRDYYGNFYYAMDYWGQGTSVTVSS VL: DIQMTQSTSSLSASLGDRVTISCSASQGINNYLNWYQQKPDGTVELLIYYTSTLQSGVPSRFSGSGSGTDYSLTISNLEPEDIGTYYCQQYSKLPRTFGGGTKLEIK 350000
